System: SF-295 CNS
assay_method_text: NCI tumour cell line growth inhibition, 48 h
parameter: TGI (µM)
# value in µM; strip the unit string

Exercise: Sample COc1ccc(C(=O)c2ccc([As]=O)cc2)cc1 (stereo unspecified) — what was its TGI?
Solution: 0.285

====

Readings of TGI for the listed compounds
System: K-562 leukemia
assay_method_text: NCI tumour cell line growth inhibition, 48 h

These solved cases illustrate the format of a correct answer.
INSERT INTO results (compound, system_tested, recorded_result) VALUES
  ('CC(C(=O)O)C(C)(O)C(=O)O (stereo not given)', 'K-562 leukemia', '> 100 µM'),
  ('O=C1OCC2=C1C(c1ccccc1)c1cc3c(cc1N2CCO)OCO3 (stereo not given)', 'K-562 leukemia', '> 50 µM');

Exercise: Query TGI on K-562 leukemia for `CSC(=NCCc1c[nH]c2ccccc12)NC#N`
Solution: > 100 µM

Sourced from PubChem BioAssay (NCI)
